These measurements were taken from PubChem BioAssay (NCATS).

procedure_text: Quantitative High-Throughput drug screen in 47 multiple myeloma cell lines against the NCATS MIPE library collection: KMS11_JCRBsus cell viability assay (AID 1919873); note: nearly all actives have a fitted effect of over 50% in size
details: KMS11 myeloma viability, CellTiter-Glo ATP luminescence, 48 h; series mostly up to 45.8 µM
Results filed as inconclusive are left out. Activity calls are given as the source filed them. Calls come from the whole dose curve; as a rule, active = well fitted cell-killing curve with a large enough effect; inconclusive = small, poorly fitted or top-dose-only effect, or effect the other way; inactive = no such curve, though single readings can be large or run the other way.
In this exercise, the only acceptable responses are T = active, F = inactive

NC(=NCCCCCCN=C(N)N=C(N)Nc1ccc(Cl)cc1)N=C(N)Nc1ccc(Cl)cc1; T
C[C@@H](Oc1ccc2[nH]nc(C=Cc3cnn(CCO)c3)c2c1)c1c(Cl)cncc1Cl; T
CCN(CC)CCCCNc1ncc2c(n1)N(C)C(=O)N(c1c(Cl)c(OC)cc(OC)c1Cl)C2; T
CC(=O)N[C@@H]1[C@H](O[C@@H]2c3ccc(c(Cl)c3)Oc3cc4cc(c3O[C@H]3O[C@H](CO)[C@@H](O)[C@H](O)[C@H]3NC(=O)CCCCCCCC(C)C)Oc3ccc(cc3Cl)C[C@H]3NC(=O)[C@H](N)c5ccc(O)c(c5)Oc5cc(O)cc(c5)[C@H](NC3=O)C(=O)N[C@H]4C(=O)N[C@H]3C(=O)N[C@@H]2C(=O)N[C@@H](C(=O)O)c2cc(O)cc(O[C@H]4O[C@H](CO)[C@@H](O)[C@H](O)[C@H]4O)c2-c2cc3ccc2O)O[C@H](CO)[C@@H](O)[C@@H]1O; F
CC(=CC(=O)Nc1ccccc1C(=O)O)c1ccc2ccccc2c1; F
CC1=C(C(=O)Nc2cc3cn[nH]c3cc2F)C(c2ccc(Cl)cc2F)N=C(c2ccnc(Cl)c2)N1 (stereo not drawn); T
C=C1C[C@@]2(O)O[C@@]3(C[C@H]2C(C)C)[C@H](C)CC[C@H]13; F
CCCCOc1ccc(C(=O)Nc2ccc(F)cc2F)cc1; F

Returns: the outcome recorded for Nc1nc2c(c(=O)[nH]1)N(C=O)[C@H](CNc1ccc(C(=O)N[C@@H](CCC(=O)O)C(=O)O)cc1)CN2 in this assay.
F

In this assay, the call recorded for O=C(NC1CC1)c1cccc(-c2ccc3c(NC(=O)C4CC4)n[nH]c3c2)c1 was what?
T

# lookup: test call for CC(Oc1ccc(O)cc1)(P(=O)(O)O)P(=O)(O)O
F

Just curious, what result did OCc1ccccc1O[C@@H]1O[C@H](CO)[C@H](O)[C@H](O)[C@H]1O get here?
F

Could you check what this test reported for Cn1cc(-c2cnn3c(N)c(Br)c([C@H]4CCCNC4)nc23)cn1 ?
T

Which result was noted for this compound in the test: Oc1ccc([C@@H]2Oc3ccc(O)cc3[C@@H]3CCC[C@@H]32)cc1
T

Check the results log: what was the call for Cc1cn([C@@H]2O[C@H](CO)[C@@H](O)[C@H]2F)c(=O)[nH]c1=O ?
F

Please state the recorded outcome for this compound: CCOc1cc2c(c(F)c1OCC)C(=N)N(CC(=O)c1cc(N3CCOCC3)c(OC)c(C(C)(C)C)c1)C2
T

Write down the call the test reported for this compound. Item: O=C(CCCCCCC(=O)Nc1cccnc1)NO
T

Would you mind telling me which call this test gave Cc1ccc(-n2[nH]c(C)c(N=Nc3cccc(-c4cccc(C(=O)O)c4)c3O)c2=O)cc1C ?
T

Hi team, can someone confirm the assay call for O=C1NC(=O)[C@@H](c2cn3c4c(cccc24)CCC3)[C@H]1c1c[nH]c2ccccc12 ?
T

Hi team, can someone confirm the assay call for CN(C)c1ccc(C(=O)NCCCCCCC(=O)NO)cc1 ?
T

Returns: the outcome recorded for C[C@]12C=CC(=O)N[C@@H]1CC[C@H]1[C@H]3CC[C@@H](C(=O)Nc4cc(C(F)(F)F)ccc4C(F)(F)F)[C@@]3(C)CC[C@@H]12 in this assay.
F

Per the records of this test, what outcome belongs to c1cc(CN2CCCNCCNCCCNCC2)ccc1CN1CCCNCCNCCCNCC1 ?
F

What was the test verdict on COc1cc(O)c2c(c1)C1OC1C[C@H](O)[C@H](O)C(=O)C=CC[C@H](C)OC2=O (stereo partly drawn) ?
T
